Where do the numbers come from? From patent US20200140489A1.

Target: AgrC-IV (Staphylococcus aureus)
Sequence (Q309Z2 1-430): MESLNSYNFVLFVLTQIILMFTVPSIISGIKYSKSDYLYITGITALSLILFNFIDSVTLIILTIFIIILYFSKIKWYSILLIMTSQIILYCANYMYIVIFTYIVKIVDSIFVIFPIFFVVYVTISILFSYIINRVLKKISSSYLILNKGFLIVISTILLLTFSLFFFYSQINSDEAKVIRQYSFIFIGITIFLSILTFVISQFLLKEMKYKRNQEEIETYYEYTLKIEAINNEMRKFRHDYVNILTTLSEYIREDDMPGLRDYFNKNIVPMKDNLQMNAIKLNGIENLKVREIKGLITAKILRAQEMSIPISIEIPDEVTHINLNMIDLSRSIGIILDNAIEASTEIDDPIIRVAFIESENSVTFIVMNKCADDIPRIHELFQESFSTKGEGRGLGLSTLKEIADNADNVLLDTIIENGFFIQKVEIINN
Assay type: cell-based, S. aureus
Conditions: read-out: AgrC-IV IC50; second-generation analogues, fluorescence reporter strain; 200 fM − 10 μM
Positions of bridges follow the written chain, without caps; N, C: chain ends. Residues, ends and D or L forms follow the SMILES beside them.
test readout: IC50 (pM)
Numbers only here, please. The scale is pM.

q: Under AgrC-IV (Staphylococcus aureus): IC50 value of CC(=O)N[C@H]1CSC(=O)[C@H](CC(C)C)NC(=O)[C@H](CC(C)C)NC(=O)[C@H](Cc2ccc(O)cc2)NC(=O)[C@H](C)NC1=O [tAIP-III D2A/F3Y, Ac-(C-A-Y-L-L)] (Ac-CAYLL; thioester 1-C) ?
a: 30.6
